// values below are reported kd
- measured on: T1, hANGPTL4(26-148)-mFc (Homo sapiens, UniProt Q9BY76)
- T1 construct: amino acid residues 26-148 of human ANGPTL4 fused in-line to mouse IgG2a (hANGPTL4-mFc)
- test summary: BIACORE, full mAb or Fab over anti-mFc captured hANGPTL4(26-148)-mFc
- Type: binding
- experimental setup: pH 7.2, 25° C.
Kindly answer with a numeric value in s⁻¹, unit omitted.

See these solved cases before continuing.
molecule	kd / s⁻¹
H1H284P: anti-hANGPTL4 antibody, hIgG1 isotype, HCVR/LCVR SEQ ID NOs 90/92 (antibody, V domains shown) VH: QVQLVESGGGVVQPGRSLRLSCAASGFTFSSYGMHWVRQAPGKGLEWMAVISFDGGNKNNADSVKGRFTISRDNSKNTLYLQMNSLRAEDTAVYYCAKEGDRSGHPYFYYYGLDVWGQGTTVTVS VL: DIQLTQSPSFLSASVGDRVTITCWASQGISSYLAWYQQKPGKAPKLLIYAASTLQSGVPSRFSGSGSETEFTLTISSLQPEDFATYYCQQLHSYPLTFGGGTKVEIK	5.36e-05
H1H268P Fab: Fab fragment of H1H268P prepared by papain digestion (antibody, V domains shown) VH: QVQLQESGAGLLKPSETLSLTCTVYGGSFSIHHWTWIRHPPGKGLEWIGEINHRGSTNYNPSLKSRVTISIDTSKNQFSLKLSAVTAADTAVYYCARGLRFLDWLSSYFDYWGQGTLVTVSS VL: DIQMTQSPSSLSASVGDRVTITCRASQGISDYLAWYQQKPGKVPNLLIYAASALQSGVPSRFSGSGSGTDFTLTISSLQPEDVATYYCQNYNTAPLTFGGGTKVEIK	0.000601
H1H284P Fab: Fab fragment of H1H284P prepared by papain digestion (antibody, V domains shown) VH: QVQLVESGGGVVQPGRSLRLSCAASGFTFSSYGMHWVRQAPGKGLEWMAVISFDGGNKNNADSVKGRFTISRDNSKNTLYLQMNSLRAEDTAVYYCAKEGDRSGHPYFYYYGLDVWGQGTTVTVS VL: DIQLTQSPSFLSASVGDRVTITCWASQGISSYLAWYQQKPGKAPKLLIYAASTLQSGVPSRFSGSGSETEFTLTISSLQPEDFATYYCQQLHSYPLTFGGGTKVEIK	0.000202

[in] Given the molecule H1H268P: anti-hANGPTL4 antibody, hIgG1 isotype, HCVR/LCVR SEQ ID NOs 42/44 (antibody, V domains shown) VH: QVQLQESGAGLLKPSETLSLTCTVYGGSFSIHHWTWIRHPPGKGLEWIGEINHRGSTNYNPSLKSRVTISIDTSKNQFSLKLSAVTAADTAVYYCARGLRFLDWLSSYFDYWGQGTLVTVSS VL: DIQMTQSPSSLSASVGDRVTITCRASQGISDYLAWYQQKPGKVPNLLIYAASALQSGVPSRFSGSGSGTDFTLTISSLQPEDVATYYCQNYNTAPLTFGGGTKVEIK , what is its reported kd?
[out] 9.59e-05
